TARGET_OF_ASSAY: ScBzz1-D1
ASSAY_DETAILS: SPOT peptide array binding signal intensity (averaged, normalized) (arbitrary units (background-subtracted, floor 0; scale differs between SH3 domains)); higher = stronger binding of the SH3 domain to the peptide
Recorded SPOT peptide array binding signal intensity by entry
ASSAY_METRIC: SPOT peptide array binding signal intensity

# BINDER, MODIFIER, RECORDED_MEASUREMENT
records = [
    ("GDHPKGPPPPPPPDE", "=", 4000),
    ("NRPAIRIPSLKKPAL", "=", 31.5),
    ("LYKRKPILLPDPKPL", "=", 20.5),
    ("PAPPPPPRASRPTPN", "=", 36),
    ("VQKRKLPLPGSIASA", "=", 21.2),
    ("KMSRSPPRPPSLKII", "=", 57),
    ("RSRRSSFAYPQQVAI", "=", 37),
    ("VFQFQMPTTPISTKM", "=", 10),
    ("VPPPMQPPPIESSNL", "≤", 0),
    ("DRIRMFIRFPKFLLE", "=", 16),
    ("RRRIAYPFYPFKKLG", "=", 6),
    ("NLDRSKISLPDFDDE", "=", 39.5),
    ("NPLPKEPRLPKRKVA", "=", 81),
    ("PPLPRAPPVPPATFE", "=", 4.5),
    ("FYNRTAFQLPGDARV", "=", 22),
]
